The molecules below each have a reported IC50 tested on PIK3CG (human) (UniProt P48736); the values come from various publications.

Cc1nc(NC(=O)N2C[C@@H](C(F)(F)F)C[C@H]2C(N)=S)sc1-c1ccnc(C(C)(C)C(F)(F)F)c1; > 1 µM
CN(C1COC1)C(C)(C)/C=C(\C#N)C(=O)Nc1ccc(N2CC(N3CCN(c4ccc5c(c4)-c4nc(N6C(=O)OC[C@H]6C(F)F)cn4CCO5)CC3)C2)cc1; 0.042 µM
Cc1nc(NC(=O)N2CC(F)(F)C[C@H]2C(N)=S)sc1-c1ccnc(C(C)(C)C(F)(F)F)c1; > 1 µM
C=CC(=O)Nc1ccc(N2CC[C@H](N3CCN(c4ccc5c(c4)-c4nc(N6C(=O)OC[C@H]6C(F)F)cn4CCO5)CC3)C2)cc1 (single isomer, unassigned); 0.038 µM
Cc1nc(NC(=O)N2C[C@H](O)C[C@H]2C(N)=S)sc1-c1ccnc(C(C)(C)C(F)(F)F)c1; 0.2 to 0.5 µM

Hello, I would appreciate it if you could give IC50 for each entry below.
1. C=CC(=O)N1CC(N2CCC(CN3CCN(c4ccc5c(c4)-c4nc(N6C(=O)OC[C@H]6C(F)F)cn4CCO5)CC3)CC2)C1
2. CO[C@@H]1C[C@@H](C(N)=S)N(C(=O)Nc2nc(C)c(-c3ccnc(C(C)(C)C(F)(F)F)c3)s2)C1
3. COc1ncc(-c2nc(N3CCOCC3)nc3c(CN4CCN(c5ncc(C(=O)NO)cn5)CC4)cc(F)cc23)cc1NS(C)(=O)=O
4. Cc1nc(NC(=O)N2CC[C@H](O)[C@H]2C(N)=S)sc1-c1ccnc(C(C)(C)C(F)(F)F)c1
5. Cc1nc(NC(=O)N2CCC[C@H]2C(N)=S)sc1-c1ccnc(C(C)(C)C(F)(F)F)c1
6. C=CC(=O)Nc1ccc(N2CC(CN3CCN(c4ccc5c(c4)-c4nc(N6C(=O)OC[C@H]6C(F)F)cn4CCO5)CC3)C2)cc1
7. CO[C@H]1C[C@@H](C(N)=S)N(C(=O)Nc2nc(C)c(-c3ccnc(C(C)(C)C(F)(F)F)c3)s2)C1

1. 0.317 µM
2. 0.2 to 0.5 µM
3. 1 to 10 µM
4. 0.2 to 0.5 µM
5. 0.2 to 0.5 µM
6. 0.098 µM
7. 0.2 to 0.5 µM
